study target: Neuronal acetylcholine receptor; alpha9/alpha10 (Homo sapiens, UniProt Q9GZZ6+Q9UGM1)
Sequence (Q9UGM1 whole entry): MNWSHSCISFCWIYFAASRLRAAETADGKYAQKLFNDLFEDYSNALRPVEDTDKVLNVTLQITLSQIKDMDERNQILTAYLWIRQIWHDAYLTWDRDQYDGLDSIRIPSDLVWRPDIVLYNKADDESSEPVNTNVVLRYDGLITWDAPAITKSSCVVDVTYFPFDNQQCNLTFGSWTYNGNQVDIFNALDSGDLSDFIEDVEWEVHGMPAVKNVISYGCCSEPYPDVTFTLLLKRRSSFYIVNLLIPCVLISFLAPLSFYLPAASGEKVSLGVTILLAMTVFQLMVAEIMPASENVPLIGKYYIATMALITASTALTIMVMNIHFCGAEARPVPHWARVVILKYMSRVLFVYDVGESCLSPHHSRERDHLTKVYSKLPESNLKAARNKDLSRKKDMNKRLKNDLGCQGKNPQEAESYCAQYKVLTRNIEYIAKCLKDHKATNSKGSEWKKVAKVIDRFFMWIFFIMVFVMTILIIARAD
Sequence (Q9GZZ6 whole entry): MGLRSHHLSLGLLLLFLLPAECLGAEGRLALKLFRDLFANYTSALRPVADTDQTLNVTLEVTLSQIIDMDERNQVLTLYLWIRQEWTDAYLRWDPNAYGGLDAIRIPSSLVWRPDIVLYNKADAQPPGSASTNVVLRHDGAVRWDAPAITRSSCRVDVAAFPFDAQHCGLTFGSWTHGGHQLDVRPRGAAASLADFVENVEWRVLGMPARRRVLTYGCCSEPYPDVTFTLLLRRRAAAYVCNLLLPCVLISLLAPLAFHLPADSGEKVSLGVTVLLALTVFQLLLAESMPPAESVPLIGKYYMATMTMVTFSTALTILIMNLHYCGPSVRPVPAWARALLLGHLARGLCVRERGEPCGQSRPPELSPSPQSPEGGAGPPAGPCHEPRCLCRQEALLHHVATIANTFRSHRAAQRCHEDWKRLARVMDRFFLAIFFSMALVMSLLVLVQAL
measurement notes: Inhibition of human alpha9alpha10 nAChR expressed in Xenopus laevis oocytes assessed as inhibition of Ach-induced response at -80 mV holding potential preincubated for 5 mins followed by Ach stimulation by two electrode voltage-clamp assay
Peptide text beside a SMILES is read from it. * marks the point of attachment. Bz = O=C(c1ccccc1)*
Below: a set of entries, each annotated with reported IC50.
Write it as a number; the unit µM goes unstated.

Example results:
{"compound": "CC[C@H](C)[C@H](NC(=O)[C@H](CCC(=O)O)NC(=O)[C@@H]1CCCN1C(=O)[C@H](Cc1cnc[nH]1)NC(=O)[C@H](CC(=O)O)NC(=O)[C@H](Cc1ccc(O)cc1)NC(=O)[C@H](CC(N)=O)NC(=O)[C@H](CS)NC(=O)[C@H](CCCNC(=N)N)NC(=O)[C@@H]1CCCN1C(=O)[C@H](CC(=O)O)NC(=O)[C@H](CO)NC(=O)[C@H](CS)NC(=O)[C@H](CS)NC(=O)CNC(=O)c1ccccc1)C(=O)N[C@@H](CS)C(N)=O", "unit spec": "µM", "IC50": 12.5}
{"compound": "CC[C@H](C)[C@H](NC(=O)[C@H](CCC(=O)O)NC(=O)[C@@H]1CCCN1C(=O)[C@H](Cc1cnc[nH]1)NC(=O)[C@H](CC(=O)O)NC(=O)[C@H](Cc1ccc(O)cc1)NC(=O)[C@H](CCCNC(=N)N)NC(=O)[C@H](CS)NC(=O)[C@H](CCCNC(=N)N)NC(=O)[C@@H]1CCCN1C(=O)[C@H](CC(=O)O)NC(=O)[C@H](CO)NC(=O)[C@H](CS)NC(=O)[C@H](CS)NC(=O)CN)C(=O)N[C@@H](CS)C(N)=O (H-GCCSDPRCRYDHPEIC-NH2)", "unit spec": "µM", "IC50": 0.363}
{"compound": "CC[C@H](C)[C@H](NC(=O)[C@H](CCC(=O)O)NC(=O)[C@@H]1CCCN1C(=O)[C@H](Cc1cnc[nH]1)NC(=O)[C@H](CC(=O)O)NC(=O)[C@H](Cc1ccc(O)cc1)NC(=O)[C@H](CCCNC(=N)N)NC(=O)[C@H](CS)NC(=O)[C@H](CCCNC(=N)N)NC(=O)[C@@H]1CCCN1C(=O)[C@H](CC(=O)O)NC(=O)[C@H](CO)NC(=O)[C@H](CS)NC(=O)[C@H](CS)NC(=O)CNC(=O)c1ccccc1)C(=O)N[C@@H](CS)C(N)=O (Bz-GCCSDPRCRYDHPEIC-NH2)", "unit spec": "µM", "IC50": 5.93}

# context switch: different compound, same IC50
Name the recorded IC50 of the compound listed here: CC[C@H](C)[C@H](NC(=O)[C@H](CCC(=O)O)NC(=O)[C@@H]1CCCN1C(=O)[C@H](Cc1cnc[nH]1)NC(=O)[C@H](CC(=O)O)NC(=O)[C@H](Cc1ccc(O)cc1)NC(=O)[C@H](CC(N)=O)NC(=O)[C@H](CS)NC(=O)[C@H](CCCNC(=N)N)NC(=O)[C@@H]1CCCN1C(=O)[C@H](CC(=O)O)NC(=O)[C@H](CO)NC(=O)[C@H](CS)NC(=O)[C@H](CS)NC(=O)CN)C(=O)N[C@@H](CS)C(N)=O
1
